- System: recombinant HCV NS5B (HCV RNA-dependent RNA polymerase) (Hepatitis C virus genotype 1b, UniProt P26663)
- Sequence (P26663 2420-3010 limits assumed): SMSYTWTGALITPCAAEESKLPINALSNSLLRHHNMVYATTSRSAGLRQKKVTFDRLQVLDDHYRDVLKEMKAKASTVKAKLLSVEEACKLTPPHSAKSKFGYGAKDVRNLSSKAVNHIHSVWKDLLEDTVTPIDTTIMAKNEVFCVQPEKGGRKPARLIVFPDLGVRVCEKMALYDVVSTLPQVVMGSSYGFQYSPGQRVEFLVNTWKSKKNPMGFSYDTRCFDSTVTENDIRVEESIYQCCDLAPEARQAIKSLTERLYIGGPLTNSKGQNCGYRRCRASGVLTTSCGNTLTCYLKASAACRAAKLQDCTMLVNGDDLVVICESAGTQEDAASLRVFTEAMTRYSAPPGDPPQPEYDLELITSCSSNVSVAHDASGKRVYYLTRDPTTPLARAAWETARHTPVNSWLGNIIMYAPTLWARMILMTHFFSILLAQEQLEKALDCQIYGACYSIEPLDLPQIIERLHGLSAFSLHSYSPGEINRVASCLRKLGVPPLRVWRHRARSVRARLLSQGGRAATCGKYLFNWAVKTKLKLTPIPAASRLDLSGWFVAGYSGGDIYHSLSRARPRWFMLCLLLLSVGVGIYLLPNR
- Measurement description: biochemical
- Condition: related polymerase activity (Example 27 list); read-out: IC50
Recorded measurements of IC50, one per entry
Value type: IC50

INSERT INTO assay_data (compound, value_type, result) VALUES
  ('Cc1ccc(-c2cc(NS(=O)(=O)c3cc(C)ccc3C)c(C(=O)O)s2)cc1 [Compound 118]', 'IC50', '< 5 µM'),
  ('CN(C(=O)c1ccc(C(F)(F)F)cc1)c1cc(-c2ccccc2)sc1C(=O)O [Compound 209]', 'IC50', '5 to 20 µM'),
  ('Cc1ccc(C(=O)N(C)c2cc(-c3cccc([N+](=O)[O-])c3)sc2C(=O)O)cc1 [Compound 196]', 'IC50', '< 5 µM'),
  ('C/C=C/C(=O)N(CC)c1cc(-c2ccccc2)sc1C(=O)O [Compound 394]', 'IC50', '5 to 20 µM'),
  ('O=C(O)c1sc(-c2ccccc2)cc1NC(=O)N1CCC(n2c(=O)[nH]c3ccccc32)CC1 [Compound 113]', 'IC50', '> 20 µM'),
  ('CC1CCC(C(=O)N(C)c2cc(-c3ccccc3)sc2C(=O)O)CC1 (centres unmarked) [Compound 286]', 'IC50', '< 5 µM'),
  ('O=C(O)c1sc(-c2ccccc2)cc1NS(=O)(=O)c1cc(Cl)sc1Cl [Compound 55]', 'IC50', '5 to 20 µM'),
  ('Cc1ccccc1S(=O)(=O)Nc1cc(-c2ccc(-c3ccc(Br)cc3)cc2)sc1C(=O)O [Compound 124]', 'IC50', '< 5 µM');

###

- System: recombinant HCV NS5B (HCV RNA-dependent RNA polymerase) (Hepatitis C virus genotype 1b, UniProt P26663)
- Measurement description: biochemical
- Condition: related polymerase activity (Example 27 list); read-out: IC50
Recorded measurements of IC50, one per entry
Value type: IC50

INSERT INTO results (smiles_record, value_type, result) VALUES
  ('Cc1ccccc1S(=O)(=O)Nc1cc(CCc2ccccc2)sc1C(=O)O', 'IC50', '5 to 20 µM'),
  ('CC(C)N(C(=S)c1ccc(Cl)cc1Cl)c1cc(-c2ccccc2)sc1C(=O)O', 'IC50', '< 5 µM'),
  ('Cc1c(-c2ccccc2)sc(C(=O)O)c1N(C(=O)c1ccc(Cl)cc1Cl)C(C)C', 'IC50', '5 to 20 µM'),
  ('Cc1cc(N(C(=O)c2ccc(Cl)cc2Cl)C(C)C)c(C(=O)O)s1', 'IC50', '< 5 µM'),
  ('O=C(O)c1sc(-c2ccccc2)cc1NS(=O)(=O)c1cccc([N+](=O)[O-])c1', 'IC50', '< 5 µM'),
  ('C=CCN(C(=O)Cc1ccc(Cl)cc1Cl)c1cc(-c2ccccc2)sc1C(=O)O', 'IC50', '5 to 20 µM'),
  ('Cc1ccccc1S(=O)(=O)Nc1cc(-c2ccc(C#N)cc2)sc1C(=O)O', 'IC50', '< 5 µM'),
  ('Cc1ccc(S(=O)(=O)Nc2c(C(=O)O)sc(-c3ccccc3)c2C)c(C)c1', 'IC50', '5 to 20 µM');

###

- System: recombinant HCV NS5B (HCV RNA-dependent RNA polymerase) (Hepatitis C virus genotype 1b, UniProt P26663)
- Measurement description: biochemical
- Condition: HCV polymerase activity, list of compounds of Example 27; read-out: IC50 (polymerase activity)
Value type: IC50

INSERT INTO results (smiles_record, result) VALUES
  ('CN(C(=O)c1cc(-c2ccccc2)sc1C(=O)O)c1ccc(Cl)cc1Cl', '5 to 20 µM'),
  ('CCCC(=O)N(Cc1cccc(Cl)c1)c1cc(-c2ccccc2)sc1C(=O)O', '< 5 µM'),
  ('Cc1cccc(-c2cc(N(C(=O)c3ccc(C)cc3O)C(C)C)c(C(=O)O)s2)c1', '< 5 µM'),
  ('CCCC(=O)N(Cc1ccc(C)cc1)c1cc(-c2ccccc2)sc1C(=O)O', '5 to 20 µM'),
  ('Cc1ccc(CN(C(=O)C2CCC2)c2cc(-c3ccccc3)sc2C(=O)O)cc1', '< 5 µM'),
  ('O=C(O)c1sc(-c2ccccc2)cc1N(Cc1ccc(C(F)(F)F)cc1)C(=O)C1CC1', '5 to 20 µM'),
  ('Cc1ccc(C(=O)N(c2cc(-c3ccccc3)sc2C(=O)O)C(C)C)c(C#N)c1', '5 to 20 µM'),
  ('O=C(O)c1sc(-c2ccccc2)cc1N(Cc1cccc(Cl)c1)C(=O)C1CC1', '5 to 20 µM');

###

- System: recombinant HCV NS5B (HCV RNA-dependent RNA polymerase) (Hepatitis C virus genotype 1b)
- Measurement description: biochemical
- Condition: related polymerase activity (Example 27 list); read-out: IC50
Structures can show the parent of a compound that is named as a salt.
Value type: IC50

INSERT INTO assay_data (molecule, result) VALUES
  ('Cc1ccccc1S(=O)(=O)Nc1cc(-c2ccc(N)cc2)sc1C(=O)O', '5 to 20 µM'),
  ('O=C(O)c1sc(-c2ccccc2)cc1NS(=O)(=O)c1ccc(Cl)c(Cl)c1', '5 to 20 µM'),
  ('O=C(O)c1sc(-c2ccccc2)cc1N(Cc1ccc(-c2cc3ccccc3o2)s1)C(=O)c1ccc(Cl)cc1Cl', '5 to 20 µM'),
  ('Cc1ccc(C(=O)N(C)c2cc(-c3ccccn3)sc2C(=O)O)cc1', '5 to 20 µM'),
  ('O=C(O)c1sc(-c2ccccc2)cc1NC(=O)N1CCN(Cc2ccc(Cl)cc2)CC1 [Compound 183, HYDROCHLORIDE]', '5 to 20 µM'),
  ('Cc1ccccc1S(=O)(=O)Nc1cc(-c2ccoc2)sc1C(=O)O', '< 5 µM'),
  ('COC(=O)c1cc(S(=O)(=O)Nc2cc(-c3ccccc3)sc2C(=O)O)oc1C', '< 5 µM'),
  ('Cc1ccccc1S(=O)(=O)Nc1cc(Cc2cccc(C#N)c2)sc1C(=O)O', '> 20 µM');

###

Recorded measurements of pIC50, one per entry
- System: recombinant HCV NS5B (HCV RNA-dependent RNA polymerase) (Hepatitis C virus genotype 1b, UniProt P26663)
- Measurement description: biochemical
- Condition: related polymerase activity (Example 27 list); read-out: IC50
pIC50: −log10 of the molar value.
Value type: pIC50

INSERT INTO assay_data (smiles_record, result) VALUES
  ('CC(C)Cc1ccc(-c2cc(NS(=O)(=O)c3ccc(Br)cc3F)c(C(=O)O)s2)cc1', '4.70 to 5.30'),
  ('O=C(O)c1sc(-c2ccccc2)cc1NC(=O)N1CCN(c2cccc(C(F)(F)F)c2)CC1', '4.70 to 5.30'),
  ('Cc1ccc(S(=O)(=O)Nc2cc(-c3ccsc3)sc2C(=O)O)cc1', '4.70 to 5.30'),
  ('Cc1noc(C)c1S(=O)(=O)Nc1cc(-c2ccccc2)sc1C(=O)O', '4.70 to 5.30'),
  ('O=C(O)c1sc(-c2ccccc2)cc1NS(=O)(=O)c1cccs1', '> 5.30'),
  ('Cc1ccc(C(=O)N(C)c2cc(-c3ccccc3Cl)sc2C(=O)O)cc1', '4.70 to 5.30'),
  ('COc1ccc(-c2cc(N(C)C(=O)c3ccc(C)cc3)c(C(=O)O)s2)cc1', '4.70 to 5.30'),
  ('CN(C(=O)c1ccccc1Cl)c1cc(-c2ccccc2)sc1C(=O)O', '4.70 to 5.30'),
  ('Cc1ccccc1S(=O)(=O)Nc1cc(-c2ccc(F)cc2)sc1C(=O)O', '> 5.30'),
  ('O=C(O)c1sc(-c2ccccc2)cc1NC(=O)N1CCN(c2ccccc2Cl)CC1', '4.70 to 5.30'),
  ('O=C(O)c1sc(-c2ccccc2)cc1NC(=O)N1CCN(c2ccc(F)cc2)CC1', '< 4.70'),
  ('CCOC(=O)c1c(S(=O)(=O)Nc2cc(-c3ccccc3)sc2C(=O)O)c(-c2ccccc2)n(-c2ccccc2)c1C', '> 5.30'),
  ('CC(=O)Oc1cc(C)ccc1C(=O)N(c1cc(-c2ccccc2)sc1C(=O)O)C(C)C', '4.70 to 5.30'),
  ('Cc1ccccc1S(=O)(=O)Nc1cc(-c2cnn(S(=O)(=O)N(C)C)c2)sc1C(=O)O', '4.70 to 5.30');

###

Recorded measurements of IC50, one per entry
- System: recombinant HCV NS5B (HCV RNA-dependent RNA polymerase) (Hepatitis C virus genotype 1b, UniProt P26663)
- Measurement description: biochemical
- Condition: HCV polymerase activity, list of compounds of Example 27; read-out: IC50 (polymerase activity)
Value type: IC50

INSERT INTO results (compound, result) VALUES
  ('COCC(C)N(C(=O)c1ccc(Cl)cc1Cl)c1cc(-c2ccccc2)sc1C(=O)O (centres unmarked) [Compound 561]', '< 5 µM'),
  ('O=C(O)c1sc(-c2ccccc2)cc1N(Cc1ccccc1Cl)C(=O)C1CC1 [Compound 423]', '> 20 µM'),
  ('CC([C@H](O[Si](C)(C)C(C)(C)C)c1ccccc1)N(C(=O)c1ccc(Cl)cc1Cl)c1cc(-c2ccccc2)sc1C(=O)O (stereo in doubt) [Compound 556]', '5 to 20 µM'),
  ('COc1cc(C)c(S(=O)(=O)N2CC(C)=CCC2C(=O)N(c2cc(-c3ccccc3)sc2C(=O)O)C(C)C)c(C)c1C (centres unmarked) [Compound 541]', '5 to 20 µM'),
  ('O=C(O)c1sc(-c2ccccc2)cc1N(Cc1ccc(F)cc1F)C(=O)C1CCC1 [Compound 495]', '< 5 µM'),
  ('CCC(=O)N(Cc1cccc(OC)c1)c1cc(-c2ccccc2)sc1C(=O)O [Compound 471]', '> 20 µM'),
  ('CC(C)C(=O)N(Cc1ccc(F)cc1F)c1cc(-c2ccccc2)sc1C(=O)O [Compound 485]', '5 to 20 µM'),
  ('CO[C@H]1CCCCC1N(C(=O)c1ccc(Cl)cc1Cl)c1cc(-c2ccccc2)sc1C(=O)O (some centres unmarked) [Compound 534]', '< 5 µM'),
  ('Cc1ccc(S(=O)(=O)Nc2cc(-c3ccc(Cl)cc3)sc2C(N)=O)cc1 [Compound 563]', '5 to 20 µM'),
  ('Cc1ccc(C(=O)N(c2cc(-c3cccc(C(F)(F)F)c3)sc2C(=O)O)C(C)C)c(OCc2ccccc2)c1 [Compound 406]', '< 5 µM'),
  ('O=C(O)c1sc(-c2ccccc2)cc1N(Cc1ccc(F)cc1F)C(=O)C1CCCCC1 [Compound 490]', '< 5 µM'),
  ('O=C(O)c1sc(-c2ccccc2)cc1N(Cc1ccc(Cl)cc1)C(=O)C1CCC1 [Compound 461]', '5 to 20 µM'),
  ('COCC(=O)N(Cc1ccc(F)cc1F)c1cc(-c2ccccc2)sc1C(=O)O [Compound 484]', '5 to 20 µM'),
  ('O=C(O)c1sc(-c2ccccc2)cc1N(Cc1ccccc1)C(=O)C1CCC1 [Compound 489]', '< 5 µM'),
  ('CC(C)C(=O)N(Cc1ccc(C(C)(C)C)cc1)c1cc(-c2ccccc2)sc1C(=O)O [Compound 437]', '5 to 20 µM'),
  ('CCCC(=O)N(Cc1cccc(C)c1)c1cc(-c2ccccc2)sc1C(=O)O [Compound 446]', '5 to 20 µM'),
  ('CCCC(=O)N(Cc1cccc(OC)c1)c1cc(-c2ccccc2)sc1C(=O)O [Compound 475]', '5 to 20 µM'),
  ('CCc1ccc(-c2cc(N(C(=O)c3ccc(C)cc3O)C(C)C)c(C(=O)O)s2)cc1 [Compound 501]', '< 5 µM'),
  ('CCC(=O)N(Cc1ccccc1C)c1cc(-c2ccccc2)sc1C(=O)O [Compound 427]', '5 to 20 µM'),
  ('CC(C)N(C(=O)C1CC=CCC1)c1cc(-c2ccccc2)sc1C(=O)O (centres unmarked) [Compound 530]', '5 to 20 µM'),
  ('CC(=O)N(Cc1cccc(Cl)c1)c1cc(-c2ccccc2)sc1C(=O)O [Compound 476]', '> 20 µM'),
  ('CCN(CC)c1ncc(CN(C(=O)c2ccc(Cl)cc2Cl)c2cc(-c3ccccc3)sc2C(=O)O)s1 [Compound 557]', '< 5 µM'),
  ('CC(=O)N(Cc1ccccc1C)c1cc(-c2ccccc2)sc1C(=O)O [Compound 426]', '> 20 µM'),
  ('Cc1cccc(CN(C(=O)C2CC2)c2cc(-c3ccccc3)sc2C(=O)O)c1 [Compound 466]', '5 to 20 µM'),
  ('Cc1ccccc1S(=O)(=O)Nc1cc(Br)sc1C(=O)O [Compound 552]', '5 to 20 µM'),
  ('CCC(=O)N(Cc1ccc([N+](=O)[O-])cc1)c1cc(-c2ccccc2)sc1C(=O)O [Compound 418]', '5 to 20 µM'),
  ('CC(=O)N1CCC(N(C(=O)c2ccc(Cl)cc2Cl)c2cc(-c3ccccc3)sc2C(=O)O)CC1 [Compound 429]', '< 5 µM'),
  ('CC1CCC(C(=O)N(c2cc(-c3ccccc3)sc2C(=O)O)C2CCOCC2)CC1 (centres unmarked) [Compound 572]', '< 5 µM'),
  ('O=C(O)c1sc(-c2ccccc2)cc1N(Cc1cccc(Cl)c1)C(=O)C1CCC1 [Compound 481]', '5 to 20 µM');
